Reported values of CRF2R EC50 for individual entries
Biological target: T1, corticotropin releasing factor 2 receptor
T1 sequence (Q13324 whole entry, species assumed, looked up): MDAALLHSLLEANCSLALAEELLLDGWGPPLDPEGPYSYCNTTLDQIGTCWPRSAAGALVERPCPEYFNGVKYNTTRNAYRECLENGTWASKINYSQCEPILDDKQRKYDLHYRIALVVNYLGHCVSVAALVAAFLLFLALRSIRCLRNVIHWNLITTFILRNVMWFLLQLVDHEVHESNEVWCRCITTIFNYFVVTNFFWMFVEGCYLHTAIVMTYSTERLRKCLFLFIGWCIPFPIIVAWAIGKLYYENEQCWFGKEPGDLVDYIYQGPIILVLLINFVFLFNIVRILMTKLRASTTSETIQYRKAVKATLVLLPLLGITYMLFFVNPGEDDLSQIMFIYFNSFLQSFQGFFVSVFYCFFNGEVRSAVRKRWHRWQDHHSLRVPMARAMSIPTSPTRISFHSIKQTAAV
Assay: cell-based or functional assay
Ends that are not written are not given here.
attribute measured: CRF2R EC50

binder	result
ZGPPISIDLPTILLRKMIEIEKQEKEKQQAANNRLLLDTI (C-terminal amide) [SEQ ID NO 50]	19 nM
SQEPPISLDLPLHLLREVLEMTKADQLAQQAHSNRKLLDIA-NH2 [SEQ ID NO 102]	100 nM
ZGPPISIDLPIYLLRKMIEIEKQEKEKQQATTNARILARV (C-terminal amide) [SEQ ID NO 149]	26.2 nM
IVLSLDVPIGLLQILLEMARAEQLAQQAHSNRKLMEII-NH2 [SEQ ID NO 164]	2.24 nM
DNPSLSIDLPLHLLRTLLELARTQSQRERAEQNAIIFASV-NH2 [SEQ ID NO 179]	10.2 nM
IVLSLDVPIGLLQILLEQTRARAAREQATTNARILARV-NH2 [SEQ ID NO 128]	2.85 nM

All figures here come from patent US20030148958A1.
